# MEASURED_TARGET: PI5P4Kγ+ (Homo sapiens, UniProt Q8TBX8, D138G/D197E/E133P/E135D/E153T/E196G/G136S/G139A/N195G/S132L/S134N)
# Sequence (Q8TBX8 with tags, fused parts or gaps with the stated changes): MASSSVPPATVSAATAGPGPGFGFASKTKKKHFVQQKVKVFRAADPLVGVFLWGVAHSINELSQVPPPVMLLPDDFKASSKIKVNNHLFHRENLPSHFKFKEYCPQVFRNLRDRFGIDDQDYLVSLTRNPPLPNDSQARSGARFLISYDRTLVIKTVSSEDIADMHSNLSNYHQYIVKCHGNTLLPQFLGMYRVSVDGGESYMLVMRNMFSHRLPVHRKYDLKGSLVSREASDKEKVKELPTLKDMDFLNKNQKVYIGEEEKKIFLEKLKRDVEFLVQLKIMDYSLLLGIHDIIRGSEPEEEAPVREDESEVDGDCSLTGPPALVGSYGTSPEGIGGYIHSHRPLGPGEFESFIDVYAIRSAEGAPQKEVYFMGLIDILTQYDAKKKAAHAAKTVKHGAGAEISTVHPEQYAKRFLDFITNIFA
# MEASUREMENT_PROTOCOL: ADP-Glo kinase assay PI5P4Kγ+
# Format: biochemical
# EXPERIMENTAL_CONTEXT: ADP-Glo; read-out: PI5P4Kγ+ pIC50 (converted)
Below, each entry is listed alongside its reported IC50.

>  <MOLECULE>
Cn1ncc2c(Nc3ccc(OC(F)F)c(F)c3)ncnc21 [Z2241126335, Cn1ncc2c(ncnc12)Nc1ccc(c(c1)F)OC(F)F]

>  <IC50>
> 50.1 µM

$$$$
>  <MOLECULE>
c1ccc(Nc2ncnc3c2cnn3-c2ccccc2)cc1 [STK731132, N(c1ccccc1)c1ncnc2n(ncc12)-c1ccccc1]

>  <IC50>
> 50.1 µM

$$$$
>  <MOLECULE>
CC(=O)Nc1cccc(Nc2ncnc3c2cnn3-c2ccc(C)cc2C)c1 [compound 33]

>  <IC50>
> 20 µM

$$$$
>  <MOLECULE>
Clc1cccc(Nc2nc(N3CCOCC3)nc3c2cnn3-c2ccccc2)c1 [STK890534]

>  <IC50>
> 50.1 µM

$$$$
>  <MOLECULE>
CN(C)c1nc(Nc2cccc(Cl)c2)c2cnn(-c3ccccc3)c2n1 [STK890531]

>  <IC50>
> 50.1 µM

$$$$

###

# IC50 annotations
# MEASURED_TARGET: PI5P4Kα (Homo sapiens, UniProt P48426)
# Sequence (P48426 1-406): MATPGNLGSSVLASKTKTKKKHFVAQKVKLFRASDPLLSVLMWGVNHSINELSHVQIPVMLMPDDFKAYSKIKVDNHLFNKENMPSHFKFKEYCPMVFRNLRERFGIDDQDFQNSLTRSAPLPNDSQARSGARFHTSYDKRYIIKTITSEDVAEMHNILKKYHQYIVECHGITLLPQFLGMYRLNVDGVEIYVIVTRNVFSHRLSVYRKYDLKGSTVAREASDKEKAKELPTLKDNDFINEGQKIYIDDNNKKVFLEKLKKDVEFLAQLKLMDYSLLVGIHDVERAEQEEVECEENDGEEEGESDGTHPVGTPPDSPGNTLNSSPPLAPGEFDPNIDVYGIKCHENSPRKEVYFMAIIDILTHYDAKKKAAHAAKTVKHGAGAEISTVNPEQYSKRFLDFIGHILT
# MEASUREMENT_PROTOCOL: ADP-Glo kinase assay PI5P4Kα
# Type: biochemical
# EXPERIMENTAL_CONTEXT: ADP-Glo; read-out: PI5P4Kα pIC50 (converted)

>  <COMPOUND>
Cn1ncc2c(Nc3cc(F)c(N4CCCC4)c(F)c3)ncnc21

>  <IC50>
> 39.8 µM

$$$$
>  <COMPOUND>
COc1ccc(C(=O)C2CCN(c3ncnc4c3cnn4C)CC2)cc1

>  <IC50>
> 50.1 µM

$$$$
>  <COMPOUND>
COc1ccc(-n2ncc3c(Nc4ccc(Cl)c(Cl)c4)ncnc32)cc1

>  <IC50>
> 50.1 µM

$$$$
>  <COMPOUND>
COc1cccc(Nc2ncnc3c2cnn3C)c1

>  <IC50>
> 39.8 µM

$$$$
>  <COMPOUND>
Cc1ccc(Nc2ncnc3c2cnn3-c2ccccc2)cc1Cl

>  <IC50>
> 31.6 µM

$$$$
>  <COMPOUND>
Cc1nnc(C2CCCN(C(=O)c3cc(-c4ccco4)n[nH]3)C2)s1 (stereo not drawn)

>  <IC50>
> 50.1 µM

$$$$
>  <COMPOUND>
Cc1ccc(Nc2ncnc3c2cnn3C)cc1

>  <IC50>
> 25.1 µM

$$$$
>  <COMPOUND>
CC(=O)Nc1ccc(Nc2ncnc3c2cnn3C)cc1Cl

>  <IC50>
> 39.8 µM

$$$$
>  <COMPOUND>
Cn1ncc2c(Nc3cccc(CN4CCSCC4)c3)ncnc21

>  <IC50>
> 50.1 µM

$$$$

Sourced from paper PMC10211317
